target: rat mGluR5 (Rattus norvegicus); construct: expressed in transfected cells; host or cells: human embryonic kidney (HEK) cells; assay: Potentiation of glutamate response, Ca2+ fluorescence (FDSS) in HEK cells transfected with rat mGluR5; assay type: cell-based; conditions: Table 1; potentiation of mGluR5 response to glutamate; read-out: EC50
Sequence (P31424 21-1203): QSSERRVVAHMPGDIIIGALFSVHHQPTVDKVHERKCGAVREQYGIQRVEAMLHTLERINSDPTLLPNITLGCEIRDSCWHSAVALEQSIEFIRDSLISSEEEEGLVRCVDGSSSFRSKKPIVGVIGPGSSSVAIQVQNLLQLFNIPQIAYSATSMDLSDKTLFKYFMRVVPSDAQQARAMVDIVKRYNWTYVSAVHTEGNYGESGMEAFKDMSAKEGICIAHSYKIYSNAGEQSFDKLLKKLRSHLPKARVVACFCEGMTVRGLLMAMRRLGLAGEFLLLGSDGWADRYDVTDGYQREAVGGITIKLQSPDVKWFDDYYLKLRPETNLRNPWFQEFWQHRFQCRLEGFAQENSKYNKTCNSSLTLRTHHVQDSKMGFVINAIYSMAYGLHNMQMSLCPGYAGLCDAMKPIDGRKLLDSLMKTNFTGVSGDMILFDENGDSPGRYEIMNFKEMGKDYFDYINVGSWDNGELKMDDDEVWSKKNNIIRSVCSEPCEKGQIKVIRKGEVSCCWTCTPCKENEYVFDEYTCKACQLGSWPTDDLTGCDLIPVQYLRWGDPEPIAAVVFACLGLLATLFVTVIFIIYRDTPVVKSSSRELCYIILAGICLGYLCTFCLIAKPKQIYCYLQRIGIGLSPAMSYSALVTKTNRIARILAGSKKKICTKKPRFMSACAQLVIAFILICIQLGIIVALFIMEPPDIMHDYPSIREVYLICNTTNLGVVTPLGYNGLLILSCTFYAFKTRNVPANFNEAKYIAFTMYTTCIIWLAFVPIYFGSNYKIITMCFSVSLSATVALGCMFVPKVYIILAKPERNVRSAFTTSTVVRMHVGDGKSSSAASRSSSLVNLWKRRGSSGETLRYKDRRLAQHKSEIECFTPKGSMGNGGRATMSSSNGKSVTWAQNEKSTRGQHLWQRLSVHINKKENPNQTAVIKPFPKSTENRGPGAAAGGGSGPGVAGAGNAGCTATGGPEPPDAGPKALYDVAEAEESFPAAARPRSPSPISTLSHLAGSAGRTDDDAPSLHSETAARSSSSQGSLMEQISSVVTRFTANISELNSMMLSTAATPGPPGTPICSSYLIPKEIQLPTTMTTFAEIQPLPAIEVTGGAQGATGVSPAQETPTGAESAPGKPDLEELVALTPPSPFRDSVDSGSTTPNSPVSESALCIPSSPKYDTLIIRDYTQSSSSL
READOUT: EC50

Recorded results for 2 molecules are shown here.
>>> df
                              test_smiles  readout    reported
0           CCCCOc1ccc(C(=O)NC(C)(C)C)cn1     EC50  ≥ 10000 nM
1  O=C(Nc1ccccc1F)c1ccc(OCc2cccc(F)c2)nc1     EC50      210 nM

Asked: Report EC50 for `C[C@@H](NC(=O)c1ccc(OCc2ccccc2)nc1)C1CC1` please.
Given back: 170 nM

Asked: Subsequent entry: `O=C(Nc1ccncn1)c1ccc(OCc2ccccc2)nc1`
Given back: 1100 nM

Asked: Subsequent entry: `O=C(NC1CCCCC1)c1ccc(OCC2CCCC2)nc1`
Given back: 710 nM

Asked: Likewise for `O=C(NCc1ccccn1)c1ccc(OCc2ccccc2)nc1` ?
Given back: 3400 nM

Asked: Thanks! And `O=C(NC1CCCCC1)c1ccc(OCc2nccs2)nc1` ?
Given back: 3100 nM

Asked: Now consider `CCCCOc1ccc(C(=O)NC2CCCCC2)cn1` .
Given back: 2400 nM

Asked: // next record `O=C(NC1CCCCC1)c1ccc(OCc2ccccc2F)nc1`
Given back: 110 nM

Asked: Same for `O=C(NC1CCOCC1)c1ccc(OCc2ccccc2)nc1`
Given back: 3900 nM

Asked: How about `CC(C)(C)CCNC(=O)c1ccc(OCc2ccc(F)cc2)nc1` ?
Given back: 690 nM

Asked: Input `O=C(Nc1ccc(F)cc1)c1ccc(OCc2cccc(F)c2)nc1`
Given back: 260 nM

Asked: And the next one, `CCCCOc1ccc(C(=O)N[C@H](C)C2CCCCC2)cn1` ?
Given back: 1500 nM

Asked: And `O=C(Nc1ccc(F)cc1)c1ccc(OCc2ccccc2)nc1` ?
Given back: 340 nM

Asked: How about `O=C(NC1CCC1)c1ccc(OCc2cccc(F)c2)nc1` ?
Given back: 120 nM

Asked: `O=C(Nc1nccs1)c1ccc(OCc2ccccc2)nc1` ?
Given back: 520 nM

Asked: `O=C(Nc1ccc(Cl)cn1)c1ccc(OCc2cccc(F)c2)nc1` ?
Given back: 346 nM

Asked: Again, but for `O=C(Nc1ccc(F)cn1)c1ccc(OCc2ccccc2)nc1`
Given back: 280 nM

Asked: One more molecule: `Cc1cccc(COc2ccc(C(=O)NC3CCCCC3)cn2)c1`
Given back: 100 nM
